Assay: Plasma pharmacokinetics of daptomycin in patients with severe burn injuries (LC-MS/MS, DAS 2.0)
Assay type: in vivo, human
Details: human, in vivo, iv, 6 mg/kg/d, 6 mg/kg/d iv, single dose, average ± SD n = 3; SD; read-out: t(h)½ (converted)
MEASUREMENT_NAME: half-life (h)
The reply should be a number in h, with the unit left off.

IN: Tell me half-life reported for CCCCCCCCCC(=O)N[C@@H](Cc1c[nH]c2ccccc12)C(=O)N[C@H](CC(N)=O)C(=O)N[C@@H](CC(=O)O)C(=O)N[C@@H]1C(=O)NCC(=O)N[C@@H](CCCN)C(=O)N[C@@H](CC(=O)O)C(=O)N[C@H](C)C(=O)N[C@@H](CC(=O)O)C(=O)NCC(=O)N[C@H](CO)C(=O)N[C@@H]([C@H](C)CC(=O)O)C(=O)N[C@@H](CC(=O)c2ccccc2N)C(=O)O[C@@H]1C
OUT: 5.64

* * *

Test: clinical
Assay type: in vivo, human
Settings: human, in vivo, iv, V d; SD
MEASUREMENT_NAME: V d (L/kg)
Your answer is read as L/kg, so omit the unit and give the number.

IN: Entry CCCCCCCCCC(=O)N[C@@H](Cc1c[nH]c2ccccc12)C(=O)N[C@H](CC(N)=O)C(=O)N[C@@H](CC(=O)O)C(=O)N[C@@H]1C(=O)NCC(=O)N[C@@H](CCCN)C(=O)N[C@@H](CC(=O)O)C(=O)N[C@H](C)C(=O)N[C@@H](CC(=O)O)C(=O)NCC(=O)N[C@H](CO)C(=O)N[C@@H]([C@H](C)CC(=O)O)C(=O)N[C@@H](CC(=O)c2ccccc2N)C(=O)O[C@@H]1C needs its V d filled in; supply it.
OUT: 0.24

* * *

Experiment: Plasma pharmacokinetics of daptomycin in patients with severe burn injuries (LC-MS/MS, DAS 2.0)
Type: in vivo, human
Details: human, in vivo, iv, 12 mg/kg/d, 12 mg/kg/d iv, single dose, average ± SD n = 7; SD; read-out: t(h)½ (converted)
MEASUREMENT_NAME: half-life

IN: Report half-life for CCCCCCCCCC(=O)N[C@@H](Cc1c[nH]c2ccccc12)C(=O)N[C@H](CC(N)=O)C(=O)N[C@@H](CC(=O)O)C(=O)N[C@@H]1C(=O)NCC(=O)N[C@@H](CCCN)C(=O)N[C@@H](CC(=O)O)C(=O)N[C@H](C)C(=O)N[C@@H](CC(=O)O)C(=O)NCC(=O)N[C@H](CO)C(=O)N[C@@H]([C@H](C)CC(=O)O)C(=O)N[C@@H](CC(=O)c2ccccc2N)C(=O)O[C@@H]1C
OUT: 7.4 h

* * *

Test: clinical
Type: in vivo, human
Conditions: human, in vivo, iv; SD
MEASUREMENT_NAME: V d (L/kg)
Write the value in L/kg as a bare number.

IN: For the molecule CCCCCCCCCC(=O)N[C@@H](Cc1c[nH]c2ccccc12)C(=O)N[C@H](CC(N)=O)C(=O)N[C@@H](CC(=O)O)C(=O)N[C@@H]1C(=O)NCC(=O)N[C@@H](CCCN)C(=O)N[C@@H](CC(=O)O)C(=O)N[C@H](C)C(=O)N[C@@H](CC(=O)O)C(=O)NCC(=O)N[C@H](CO)C(=O)N[C@@H]([C@H](C)CC(=O)O)C(=O)N[C@@H](CC(=O)c2ccccc2N)C(=O)O[C@@H]1C , give its reported V d.
OUT: 0.19

* * *

Experiment: clinical
Assay type: in vivo, human
Conditions: human, in vivo, iv; SD
MEASUREMENT_NAME: clearance
A bare number is not enough; add the unit after it.

IN: Let me know recorded clearance for CCCCCCCCCC(=O)N[C@@H](Cc1c[nH]c2ccccc12)C(=O)N[C@H](CC(N)=O)C(=O)N[C@@H](CC(=O)O)C(=O)N[C@@H]1C(=O)NCC(=O)N[C@@H](CCCN)C(=O)N[C@@H](CC(=O)O)C(=O)N[C@H](C)C(=O)N[C@@H](CC(=O)O)C(=O)NCC(=O)N[C@H](CO)C(=O)N[C@@H]([C@H](C)CC(=O)O)C(=O)N[C@@H](CC(=O)c2ccccc2N)C(=O)O[C@@H]1C [daptomycin] , thanks.
OUT: 0.403 mL/min/kg

* * *

Assay: Plasma pharmacokinetics of daptomycin in patients with severe burn injuries (LC-MS/MS, DAS 2.0)
Assay type: in vivo, human
Conditions: human, in vivo, iv, 12 mg/kg/d, 12 mg/kg/d iv, single dose, average ± SD n = 7; SD; read-out: CL (converted)
MEASUREMENT_NAME: clearance

IN: Provide one value: measured clearance of CCCCCCCCCC(=O)N[C@@H](Cc1c[nH]c2ccccc12)C(=O)N[C@H](CC(N)=O)C(=O)N[C@@H](CC(=O)O)C(=O)N[C@@H]1C(=O)NCC(=O)N[C@@H](CCCN)C(=O)N[C@@H](CC(=O)O)C(=O)N[C@H](C)C(=O)N[C@@H](CC(=O)O)C(=O)NCC(=O)N[C@H](CO)C(=O)N[C@@H]([C@H](C)CC(=O)O)C(=O)N[C@@H](CC(=O)c2ccccc2N)C(=O)O[C@@H]1C [daptomycin]
OUT: 0.375 mL/min/kg

* * *

Experiment: Plasma pharmacokinetics of daptomycin in patients with severe burn injuries (LC-MS/MS, DAS 2.0)
Assay type: in vivo, human
Conditions: human, in vivo; 12 mg/kg/d iv, multiple dose (day 6), average ± SD n = 7; SD; read-out: CL (converted)
MEASUREMENT_NAME: clearance (mL/min/kg)
// return numeric value only (unit: mL/min/kg, not printed)

IN: Provide measured clearance value, entry: CCCCCCCCCC(=O)N[C@@H](Cc1c[nH]c2ccccc12)C(=O)N[C@H](CC(N)=O)C(=O)N[C@@H](CC(=O)O)C(=O)N[C@@H]1C(=O)NCC(=O)N[C@@H](CCCN)C(=O)N[C@@H](CC(=O)O)C(=O)N[C@H](C)C(=O)N[C@@H](CC(=O)O)C(=O)NCC(=O)N[C@H](CO)C(=O)N[C@@H]([C@H](C)CC(=O)O)C(=O)N[C@@H](CC(=O)c2ccccc2N)C(=O)O[C@@H]1C [daptomycin]
OUT: 0.33
